Give measured Plant response rating, Barnyardgrass for each item. Keep answers brief.
# Test system: barnyardgrass
# protocol_details: Test A postemergence
# Assay type: in vivo, Echinochloa crus-galli
# protocol_conditions: 500 g ai/ha, 0 to 100 scale (0 no effect, 100 complete control), approx. 10 d
Enter the number alone.

Task: Check the records and state Plant response rating, Barnyardgrass for `CCCOc1nc(-c2ccc(F)cc2)nn1Cc1ccnc(C(F)(F)F)c1`
Output: 80

Task: Check the records and state Plant response rating, Barnyardgrass for `CSc1nc(-c2ccc(F)cc2)nn1Cc1ccnc(C(F)(F)F)c1`
Output: 10

Task: Check the records and state Plant response rating, Barnyardgrass for `Cn1nc(-c2ccc(F)cc2)nc1Cc1ccnc(C(F)(F)F)c1`
Output: 90

====

Give measured Plant response rating (scale of 0 to 100 where 0 is no effect and 100 is complete control) for each item. Keep answers brief.
# Test system: johnsongrass
# protocol_details: Test C postemergence
# Format: in vivo, Sorghum halepense
# protocol_conditions: 31 g ai/ha
# Excerpt: […]
Enter the number alone.

Task: Check the records and state Plant response rating (scale of 0 to 100 where 0 is no effect and 100 is complete control) for `COc1nc(-c2ccccc2)nn1Cc1ccnc(C(F)(F)F)c1`
Output: 10

Task: Check the records and state Plant response rating (scale of 0 to 100 where 0 is no effect and 100 is complete control) for `CCc1nc(-c2ccc(C(F)(F)F)cc2)nn1Cc1ccnc(C(F)(F)F)c1`
Output: 10

Task: Check the records and state Plant response rating (scale of 0 to 100 where 0 is no effect and 100 is complete control) for `Fc1ccc(-c2nc(OCC(F)(F)F)n(Cc3ccnc(C(F)(F)F)c3)n2)cc1`
Output: 30

====

# Test system: foxtail, giant
# protocol_details: Test A postemergence
# Format: in vivo, Setaria faberii
# protocol_conditions: 125 g ai/ha, 0 to 100 scale (0 no effect, 100 complete control), approx. 10 d
measurement_kind: Plant response rating, Foxtail, Giant

Task: Check the records and state Plant response rating, Foxtail, Giant for `CCCc1nc(-c2ccc(C(F)(F)F)cc2)nn1Cc1ccnc(C(F)(F)F)c1`
Output: 70

Task: Check the records and state Plant response rating, Foxtail, Giant for `COc1nc(-c2ccc(Cl)cc2)nn1Cc1ccnc(C(F)(F)F)c1`
Output: 70

Task: Check the records and state Plant response rating, Foxtail, Giant for `Cn1nc(-c2ccc(F)cc2)nc1Cc1ccnc(C(F)(F)F)c1`
Output: 80

Task: Check the records and state Plant response rating, Foxtail, Giant for `CCc1nc(-c2ccc(F)cc2)nn1Cc1ccnc(C(F)(F)F)c1`
Output: 70

Task: Check the records and state Plant response rating, Foxtail, Giant for `CCOc1nc(-c2ccccc2)nn1Cc1ccnc(C(F)(F)F)c1`
Output: 90

Task: Check the records and state Plant response rating, Foxtail, Giant for `COc1nc(-c2ccc(OC(F)(F)F)cc2)nn1Cc1ccnc(C(F)(F)F)c1`
Output: 0

Task: Check the records and state Plant response rating, Foxtail, Giant for `CCc1nc(-c2cccc(C(F)(F)F)c2)nn1Cc1ccnc(C(F)(F)F)c1`
Output: 20

Task: Check the records and state Plant response rating, Foxtail, Giant for `CCCn1nc(-c2ccc(F)cc2)nc1C(=O)c1ccnc(C(F)(F)F)c1`
Output: 10

Task: Check the records and state Plant response rating, Foxtail, Giant for `FC(F)(F)COc1nc(-c2ccc(Cl)cc2)nn1Cc1ccnc(C(F)(F)F)c1`
Output: 80

Task: Check the records and state Plant response rating, Foxtail, Giant for `CCCc1nc(-c2ccc(F)c(F)c2)nn1Cc1ccnc(C(F)(F)F)c1`
Output: 70
